Test system: BDF1 mice, P388 leukemia ip, median survival T/C
Test: NCI In Vivo Anticancer Drug Screen. Data for tumor model P388 Leukemia (intraperitoneal) in B6D2F1 (BDF1) mice
Settings: endpoint: median survival time; dose: 25.0 mg/kg/injection; schedule: Q04DX003 (ip); vehicle: water; higher = longer survival
Description: The antitumor activity of compounds was measured in mice bearing transplantable tumors. Survival or tumor size were measured and the results are expressed as the measurement made in the treated group (T) divided by the measurement made in the vehicle treated control group (C). The tumor model used in this assay is P388 Leukemia (intraperitoneal) in B6D2F1 (BDF1) mice
Toxic doses and inconclusive results are not listed.
measure name: T/C

Tell me reported T/C for COc1cccc(C(O)c2ccncc2)c1OC (centres undefined) , tested with BDF1 mice, P388 leukemia ip, median survival T/C.
113 % of control

Please answer likewise for O=C(CI)Nc1ccc(O)c2ccccc12
104 % of control

Please answer likewise for O=C1C2C(C(=O)N1c1ccc(OCc3ccccc3)cc1)C1c3ccccc3C2C2CCCCN21 (centres undefined)
101 % of control

Same question for CCOC(=O)c1cnn(C)c1N please.
109 % of control

Origin of values: PubChem BioAssay AID328
